Attribution: patent US20150376265A1

# TESTED ON: T1, soluble baculovirus-expressed gH/gL (HCMV, UniProt P12824 24-720; P16832 31-278)
# T1 construct: also called gH/gL dimer produced in baculovirus; baculovirus expressed, secreted gH/gL
# T1 sequence 1: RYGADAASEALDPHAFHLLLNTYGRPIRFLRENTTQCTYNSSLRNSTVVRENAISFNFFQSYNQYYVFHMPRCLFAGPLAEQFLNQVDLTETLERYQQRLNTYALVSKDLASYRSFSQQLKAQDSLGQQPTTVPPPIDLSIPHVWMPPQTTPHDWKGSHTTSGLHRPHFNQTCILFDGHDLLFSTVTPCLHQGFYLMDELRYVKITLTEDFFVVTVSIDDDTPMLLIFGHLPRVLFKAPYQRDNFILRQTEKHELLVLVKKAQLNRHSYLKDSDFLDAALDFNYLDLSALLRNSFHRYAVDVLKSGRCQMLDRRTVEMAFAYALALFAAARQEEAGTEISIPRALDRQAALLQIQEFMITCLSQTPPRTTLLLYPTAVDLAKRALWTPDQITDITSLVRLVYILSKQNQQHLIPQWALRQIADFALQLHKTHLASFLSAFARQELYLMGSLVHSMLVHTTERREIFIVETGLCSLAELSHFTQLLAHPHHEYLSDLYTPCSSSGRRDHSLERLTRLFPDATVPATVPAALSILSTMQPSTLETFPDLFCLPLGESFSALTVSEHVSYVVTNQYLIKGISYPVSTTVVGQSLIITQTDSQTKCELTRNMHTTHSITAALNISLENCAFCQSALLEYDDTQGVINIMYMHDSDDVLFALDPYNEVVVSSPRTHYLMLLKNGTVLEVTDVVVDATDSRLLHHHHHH
# T1 sequence 2: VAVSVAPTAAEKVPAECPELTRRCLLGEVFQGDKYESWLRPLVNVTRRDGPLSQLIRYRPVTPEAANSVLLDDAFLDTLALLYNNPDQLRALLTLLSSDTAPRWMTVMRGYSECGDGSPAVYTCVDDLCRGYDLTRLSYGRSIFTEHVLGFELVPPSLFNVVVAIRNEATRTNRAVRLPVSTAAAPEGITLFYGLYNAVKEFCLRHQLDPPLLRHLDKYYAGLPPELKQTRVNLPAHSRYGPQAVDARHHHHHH
# EXPERIMENT DESCRIPTION: competition phage ELISA: phage-displayed Fab with serially diluted soluble gH/gL, free phage caught on coated gH/gL
pIC50: −log10 of the molar value.
ENDPOINT: pIC50

[
  {
    "BINDER": "MSL-109 Fab variant H2-D53L/T55R (Fab, name in Kabat numbering, V domains shown) VH: EEQVLESGGGLVKPGGSLRLSCAASGFTFSPYSVFWVRQAPGKGLEWVSSINSLSRYKYYADSVKGRFTISRDNAENSIFLQMNSLRAEDTAVYYCARDRSYYAFSSGSLSDYYYGLDVWGQGTLVTVSS VL: DIVMTQSPLSLSVTPGEPASISCRSSQSLLHTNGYNYLDWYVQKPGQSPQLLIYLASNRASGVPDRFSGSGSGTDFTLKISRVETEDVGVYYCMQALQIPRTFGQGTKVEIK",
    "ENDPOINT": "pIC50",
    "MEAS VALUE": 10.70
  },
  {
    "BINDER": "MSL-109 Fab variant H2-D53S (Fab, name in Kabat numbering, V domains shown) VH: EEQVLESGGGLVKPGGSLRLSCAASGFTFSPYSVFWVRQAPGKGLEWVSSINSSSTYKYYADSVKGRFTISRDNAENSIFLQMNSLRAEDTAVYYCARDRSYYAFSSGSLSDYYYGLDVWGQGTLVTVSS VL: DIVMTQSPLSLSVTPGEPASISCRSSQSLLHTNGYNYLDWYVQKPGQSPQLLIYLASNRASGVPDRFSGSGSGTDFTLKISRVETEDVGVYYCMQALQIPRTFGQGTKVEIK",
    "ENDPOINT": "pIC50",
    "MEAS VALUE": 10.00
  },
  {
    "BINDER": "MSL-109 Fab variant H2-D53F/T55R (Fab, name in Kabat numbering, V domains shown) VH: EEQVLESGGGLVKPGGSLRLSCAASGFTFSPYSVFWVRQAPGKGLEWVSSINSFSRYKYYADSVKGRFTISRDNAENSIFLQMNSLRAEDTAVYYCARDRSYYAFSSGSLSDYYYGLDVWGQGTLVTVSS VL: DIVMTQSPLSLSVTPGEPASISCRSSQSLLHTNGYNYLDWYVQKPGQSPQLLIYLASNRASGVPDRFSGSGSGTDFTLKISRVETEDVGVYYCMQALQIPRTFGQGTKVEIK",
    "ENDPOINT": "pIC50",
    "MEAS VALUE": 11.00
  },
  {
    "BINDER": "MSL-109 Fab variant H2-D53L (Fab, name in Kabat numbering, V domains shown) VH: EEQVLESGGGLVKPGGSLRLSCAASGFTFSPYSVFWVRQAPGKGLEWVSSINSLSTYKYYADSVKGRFTISRDNAENSIFLQMNSLRAEDTAVYYCARDRSYYAFSSGSLSDYYYGLDVWGQGTLVTVSS VL: DIVMTQSPLSLSVTPGEPASISCRSSQSLLHTNGYNYLDWYVQKPGQSPQLLIYLASNRASGVPDRFSGSGSGTDFTLKISRVETEDVGVYYCMQALQIPRTFGQGTKVEIK",
    "ENDPOINT": "pIC50",
    "MEAS VALUE": 10.70
  },
  {
    "BINDER": "HB2 Fab fragment, H2-D53Q/T55R (HB2) (Fab, name in Kabat numbering, V domains shown) VH: EEQVLESGGGLVKPGGSLRLSCAASGFTFSPYSVFWVRQAPGKGLEWVSSINSQSRYKYYADSVKGRFTISRDNAENSIFLQMNSLRAEDTAVYYCARDRSYYAFSSGSLSDYYYGLDVWGQGTLVTVSS VL: DIVMTQSPLSLSVTPGEPASISCRSSQSLLHTNGYNYLDWYVQKPGQSPQLLIYLASNRASGVPDRFSGSGSGTDFTLKISRVETEDVGVYYCMQALQIPRTFGQGTKVEIK",
    "ENDPOINT": "pIC50",
    "MEAS VALUE": 11.00
  },
  {
    "BINDER": "MSL-109 Fab variant H2-D53M (Fab, name in Kabat numbering, V domains shown) VH: EEQVLESGGGLVKPGGSLRLSCAASGFTFSPYSVFWVRQAPGKGLEWVSSINSMSTYKYYADSVKGRFTISRDNAENSIFLQMNSLRAEDTAVYYCARDRSYYAFSSGSLSDYYYGLDVWGQGTLVTVSS VL: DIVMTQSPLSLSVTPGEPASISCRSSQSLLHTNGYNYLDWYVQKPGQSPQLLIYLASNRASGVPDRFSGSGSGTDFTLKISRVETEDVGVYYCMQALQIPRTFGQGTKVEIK",
    "ENDPOINT": "pIC50",
    "MEAS VALUE": 10.30
  }
]
